Source of measurements: paper PMC10177328

Biological target: T1, Hydra Myc3 bHLH-LZ (p13);Hydra Max bHLH-LZ (p13) (Hydra (strain  in the text …, UniProt A0A0H5FMB4;D0EM50 108-197;29-120, |))
T1 sequence 1: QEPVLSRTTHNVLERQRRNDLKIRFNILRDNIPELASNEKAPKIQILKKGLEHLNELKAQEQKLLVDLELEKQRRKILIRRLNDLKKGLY
T1 sequence 2: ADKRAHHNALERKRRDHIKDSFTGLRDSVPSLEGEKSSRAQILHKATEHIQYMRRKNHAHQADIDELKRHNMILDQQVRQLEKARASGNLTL
Assay: EMSA; 0-2000 nM protein; EMSA: 10 mM Tris-HCl pH 7.5, 0.5 mM EDTA, 65 mM KCl, 5 mM MgCl2, 1 mM DTT, 100 ug/mL BSA, 10% glycerol, 25 C, 45 min; native 6% PAGE
Conditions: protein: recombinant;recombinant, tags: N-terminal initiator Met, C-terminal His6;N-terminal initiator Met, copies: 1;1, label: 32P, blunt
MEASURED PARAMETER: Kd (nM)
Quick note: give the figure in nM, leave out the unit.

Query: Given the entry myc2 promoter E-box 18-mer (dsDNA) DNA 1: ATAGCTCACGTGTCAATA DNA 2: TATTGACACGTGAGCTAT , report its measured Kd.
Response: 16.3
